- Experiment Description: Acute oral toxicity study in rats (GLP)
- Type: in vivo, rat
- Protocol Conditions: rat, in vivo, adult albino Sprague-Dawley rats
Measurement Kind: LD50

In: What value of LD50 has been recorded for this entry: C[Si]1(C)OCCOCCOCCOC2CCCCC2O1 (stereo not shown)
Out: > 5000 mg/kg

Taken from patent US11479568B2.
